- Recorded Conditions: in ethylene glycol, 298.15 K
Measured Quantity: solubility (mole fraction)

solubility (mole fraction) measured on COc1cc(C(=O)O)cc(OC)c1O = 0.0124

###

- Recorded Conditions: in ethylene glycol, 283.15 K
Measured Quantity: solubility (mole fraction)
Give bare numbers.

solubility (mole fraction) measured on COc1cc(C(=O)O)cc(OC)c1O = 0.00812

###

- Recorded Conditions: in isopropanol, 288.15 K
Measured Quantity: solubility (mole fraction)
Give bare numbers.

solubility (mole fraction) measured on COc1cc(C(=O)O)cc(OC)c1O = 0.00455

###

- Recorded Conditions: in isopropanol, 318.15 K
Measured Quantity: solubility (mole fraction)
Answers are plain numbers.

solubility (mole fraction) measured on COc1cc(C(=O)O)cc(OC)c1O = 0.0115

Source: BigSolDB 2.1
